target: DC-SIGN CRD (Homo sapiens); experiment: COIN-nMS (submicron emitters) with a mixture of ten glycans (G2, G5, G10, G14-G20), 200 mM ammonium acetate with 2.5 mM calcium salt, pH 7.4.; type: binding; set-up: gene CD209; carbohydrate recognition domain, residues 250-404, MW 17 794 Da; settings: SD, n = 6; read-out: Kd (COIN-nMS), Table S5
Sequence (Q9NNX6 250-404): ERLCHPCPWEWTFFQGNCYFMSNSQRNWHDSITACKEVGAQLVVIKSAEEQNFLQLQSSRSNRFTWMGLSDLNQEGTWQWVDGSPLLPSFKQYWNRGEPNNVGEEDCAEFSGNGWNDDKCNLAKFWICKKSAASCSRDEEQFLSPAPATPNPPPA
readout_type: Kd (µM)
Give bare numbers, in µM.

compound | Kd (µM)
OC[C@H]1O[C@H](O[C@H]2[C@H](O)[C@@H](O)[C@@H](O[C@H]3[C@H](O)[C@@H](O)[C@@H](O[C@H]4[C@H](O)[C@@H](O)[C@@H](O[C@H]5[C@H](O)[C@@H](O)C(O)O[C@@H]5CO)O[C@@H]4CO)O[C@@H]3CO)O[C@@H]2CO)[C@H](O)[C@@H](O)[C@@H]1O (stereo partly drawn) | 1830
OC[C@H]1O[C@H](OC[C@H]2O[C@H](OC[C@H]3OC(O)[C@@H](O)[C@@H](O)[C@@H]3O)[C@@H](O)[C@@H](O[C@H]3O[C@H](CO)[C@@H](O)[C@H](O)[C@@H]3O)[C@@H]2O)[C@@H](O)[C@@H](O)[C@@H]1O (stereo partly drawn) | 1500

In the following, a different compound is considered.
Q) Look at this compound and give its reported Kd. CC(=O)N[C@H]1[C@H](O[C@H]2[C@@H](O)[C@@H](CO)O[C@@H](O[C@H]3[C@H](O)[C@@H](O)C(O)O[C@@H]3CO)[C@@H]2O)O[C@H](CO)[C@@H](O[C@@H]2O[C@H](CO)[C@H](O)[C@H](O[C@H]3O[C@H](CO)[C@H](O)[C@H](O)[C@H]3O)[C@H]2O[C@@H]2O[C@@H](C)[C@@H](O)[C@@H](O)[C@@H]2O)[C@@H]1O (stereo partly drawn) [G18, blood group antigen G18]
A) 1870
